This collection of values is drawn from PubChem BioAssay AID1992.

Molecular target: Dual specificity protein phosphatase 3 (Homo sapiens) (UniProt P51452)
Sequence (P51452 whole entry, looked up): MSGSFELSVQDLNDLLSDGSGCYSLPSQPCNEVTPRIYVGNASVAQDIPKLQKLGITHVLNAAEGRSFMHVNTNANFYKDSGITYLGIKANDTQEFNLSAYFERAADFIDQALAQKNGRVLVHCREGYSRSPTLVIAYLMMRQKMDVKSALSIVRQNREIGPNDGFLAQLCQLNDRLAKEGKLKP
Experiment: VHR1 phosphatase inhibitors, primary screen, biochemical, colorimetric, HTS (AID 1992)
Conditions: recombinant VHR phosphatase, colorimetric substrate read-out; at 20 µM; hits give high values
In all, about 50,000 compounds went through this assay and about 350 (0.7%) were called active. This is one part of a sample in which actives are shown more often than they occur.
Can you tell me inhibition for the items I'm about to list?
Your answer should be a plain number; it is taken to be in %.

inhibition measured on "S=c1n(CN2CCOCC2)nc(-c2ccccc2Cl)n1-c1ccccc1" = -3.8

inhibition measured on "CC(=O)N(C1=C(Cl)C(=O)c2ccccc2C1=O)c1cccc(Br)c1" = 84.5

inhibition measured on "Cc1ncc(C[n+]2csc3ccccc32)c(N)n1" = 23.5

inhibition measured on "CN(C)/C=C(/Cl)C=C1C(=O)c2ccccc2C1=O" = -2.3

inhibition measured on "Cc1cc(/C=C2/NC(=S)NC2=O)c(C)n1-c1ccc(N2CCOCC2)cc1" = 61.6

inhibition measured on "CCCOC(=O)c1ccc(N=Cc2ccc([N+](=O)[O-])cc2)cc1" = 3.4

inhibition measured on O=C1C2C(C(=O)N1/N=C/C=C/c1ccccc1)C1C=CC2C12CC2 (stereo not given) = -11.9

inhibition measured on "CCOC(=O)C1=C(O)CSC1=Nc1cccc(Cl)c1" = -1.6

inhibition measured on "O=C(NCCCn1ccnc1)c1cc2c(ccc3ccccc32)oc1=O" = -14.2

inhibition measured on "Cc1ccc(C2=C/C(=C\c3cccnc3)C(=O)O2)cc1" = 14.8

inhibition measured on "C/C(=N\NC(=O)c1cccc(Cl)c1)c1ccccc1O" = -3.8

inhibition measured on COc1ccc(N2C(=O)C3C(C2=O)C2C=CC3C23CC3)cc1 (stereo not given) = -13

inhibition measured on "Cc1ccc(C)c(OCc2nnc(NC(=O)c3ccccc3)s2)c1" = 5.1

inhibition measured on "CCCCOc1ccc(/C=C2/C=C(c3ccccc3)OC2=O)cc1" = 21.2

inhibition measured on "CCOC(=O)COc1ccc(/C=N\n2nnnc2N)cc1OC" = -44.1

inhibition measured on "COc1ccc(C=O)c2c(O)cccc12" = 2.1

inhibition measured on "O=C(CN(c1cccc(Br)c1)S(=O)(=O)c1ccccc1)N1CCOCC1" = -30.2

inhibition measured on "CCOC(=O)C1=C(O)CSC1=Nc1ccc(F)cc1" = 104

inhibition measured on "O=C(/C=C\Nc1ccccn1)c1ccc2c(c1)OCO2" = -7.8

inhibition measured on "COc1ccc(CCNS(=O)(=O)c2cccc([N+](=O)[O-])c2)cc1" = 8.5

====

Molecular target: Dual specificity protein phosphatase 3 (Homo sapiens) (UniProt P51452)
Experiment: VHR1 phosphatase inhibitors, primary screen, biochemical, colorimetric, HTS (AID 1992)
Conditions: recombinant VHR phosphatase, colorimetric substrate read-out; at 20 µM; hits give high values
The whole screen tested about 50,000 compounds, of which about 350 (0.7%) were called active. This excerpt belongs to a sample that is enriched for actives.
Quick rule: inhibition of at least 40% means Fulfilled, below that means Not fulfilled.

// inclusive: inhibition at least 40%? input: "Cc1cccc(OCCOc2cccc(/C=N/n3cnnc3)c2)c1"
Fulfilled

// inclusive: inhibition at least 40%? input: "CN(C)CCOC(=O)CCN1C(=O)/C(=C/c2ccc(Cl)cc2Cl)SC1=S"
Not fulfilled

// inclusive: inhibition at least 40%? input: "Nc1nnc(CCC(=O)c2ccccc2)s1"
Fulfilled

// inclusive: inhibition at least 40%? input: "COc1ccccc1OCCOc1ccc(/C=N/n2cnnc2)cc1"
Not fulfilled

// inclusive: inhibition at least 40%? input: "COc1ccc(NC(=O)/C=C/c2cccc([N+](=O)[O-])c2)cc1"
Not fulfilled

// inclusive: inhibition at least 40%? input: "O=c1[nH]c(=O)n(-c2ccc(Cl)cc2)c(O)c1/C=C1/C=CC=N1"
Not fulfilled

// inclusive: inhibition at least 40%? input: "O=C1S/C(=C/c2ccc(-c3ccc(Cl)cc3Cl)o2)C(=O)N1c1ccccc1"
Not fulfilled

// inclusive: inhibition at least 40%? input: "Nc1nnc(SCC(=O)NCc2ccccc2)s1"
Not fulfilled

// inclusive: inhibition at least 40%? input: "O=c1[nH]c(=S)n(-c2cccc(Cl)c2)c(O)c1/C=C1/C=CC=N1"
Fulfilled

// inclusive: inhibition at least 40%? input: O=C1C(=O)N(Cc2ccccc2)C2C=CC=CC12 (stereo unspecified)
Not fulfilled

// inclusive: inhibition at least 40%? input: "Cc1ccc2c(N)c(C(=O)c3ccccc3)sc2n1"
Not fulfilled
